Where do these numbers come from? They come from the Human Domainome abundance scans (Beltran et al. 2025).

B1: Segment polarity protein dishevelled homolog DVL-3, residues 2 to 81; numbered along this chain, Q92997 (parent)
chain: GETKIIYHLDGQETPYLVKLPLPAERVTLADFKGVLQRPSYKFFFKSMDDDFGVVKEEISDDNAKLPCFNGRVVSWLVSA

# Variants of: B1
# testName: abundance fitness (aPCA) (normalised: wild type 0, dead -1); higher = more abundant; growth selection in yeast, the domain comes from the species named
# assayContext: Homo sapiens
Lab note: compare abundance fitness against -0.4. Equal or greater, write satisfied. Smaller, write not satisfied.

variantCode: K19H
groupLabel: satisfied

variantCode: G71F
groupLabel: not satisfied

variantCode: R38M
groupLabel: satisfied

variantCode: D31F
groupLabel: not satisfied

variantCode: S75D
groupLabel: not satisfied

variantCode: G71H
groupLabel: satisfied

variantCode: R38G
groupLabel: satisfied

variantCode: R26Y
groupLabel: not satisfied

variantCode: F44N
groupLabel: not satisfied

variantCode: P67H
groupLabel: not satisfied

variantCode: F69L
groupLabel: satisfied

variantCode: L22E
groupLabel: not satisfied

variantCode: L20F
groupLabel: satisfied

variantCode: A30M
groupLabel: not satisfied

variantCode: K46P
groupLabel: not satisfied

variantCode: L20V
groupLabel: satisfied

variantCode: E57L
groupLabel: satisfied

variantCode: F32H
groupLabel: not satisfied

variantCode: V74P
groupLabel: not satisfied

variantCode: K46W
groupLabel: satisfied

variantCode: W76K
groupLabel: not satisfied

variantCode: R72A
groupLabel: satisfied
